Assay: qHTS assay for small molecule activators of the human pregnane X receptor (PXR) signaling pathway (AID 720659)
Details: DPX-2 HepG2 CYP3A4-luciferase, 24 h; series mostly up to 92.3 µM
The source made the active and inactive calls. No rule for the calls is given here.
readout type: outcome

// solved cases for outcome follow
I would be grateful if you could share the reported outcome for C[C@H]1C(=O)O[C@@H]2CCN3CC=C(COC(=O)[C@](C)(O)[C@]1(C)O)[C@H]23 .
inactive

Please give the result for CCCCCCCCC(=O)NCc1ccc(O)c(OC)c1 too.
inactive

Please give the result for CCNc1nc(Cl)nc(NCC)n1 too.
inactive

Please give the result for O=c1n(Cl)c(=O)n(Cl)c(=O)n1Cl too.
inactive

Others:
I would be grateful if you could share the reported outcome for Cc1ccc(N=CN(C)C=Nc2ccc(C)cc2C)c(C)c1 .
inactive
